These entries and their values trace back to paper PMC10051811.

experiment: Micafungin plasma pharmacokinetics in neonates and young infants (HPLC); assay type: in vivo, human; conditions: human, iv, age >120 days (n = 13), 8-15 mg/kg/day iv, mean ± SD, SD, read-out: Clearance/weight (converted)
*1 amine or outer side, *2 acyl side, *3 side chain or, on linkers, in order; H or OH if unused. Where a SMILES comes first, the peptide text is derived from it. Bridges are numbered along the chain shown (N, C = ends). [ ]: non-standard residue; d: D form. The star is where a group is joined. hTyr(3S-OH,4S-OH,3'-OSO3H) = N[C@H](C(=O)O)[C@H](O)[C@@H](O)c1ccc(O)c(OS(=O)(=O)O)c1; Orn(4R-OH,5R-OH) = O=C([C@H](C[C@@H](O)[C@@H](O)N[*:3])N[*:1])[*:2]; Pro(3S-OH,4S-Me) = C[C@H]1CN[C@H](C(=O)O)[C@H]1O; X1 = CCCCCOc1ccc(-c2cc(-c3ccc(C(=O)*)cc3)no2)cc1; Gln(3R-OH) = NC(=O)C[C@@H](O)[C@H](N)C(=O)O; Hyp = O=C(O)[C@@H]1C[C@@H](O)CN1
observation.type: clearance (mL/min/kg)
Answers are plain numbers, in mL/min/kg.

Q: Identify measured clearance corresponding to CCCCCOc1ccc(-c2cc(-c3ccc(C(=O)N[C@H]4C[C@@H](O)[C@@H](O)NC(=O)[C@@H]5[C@@H](O)[C@@H](C)CN5C(=O)[C@H]([C@H](O)CC(N)=O)NC(=O)[C@H]([C@H](O)[C@@H](O)c5ccc(O)c(OS(=O)(=O)O)c5)NC(=O)[C@@H]5C[C@@H](O)CN5C(=O)[C@H]([C@@H](C)O)NC4=O)cc3)no2)cc1 [micafungin] (X1-[Orn(4R-OH,5R-OH)]T[Hyp][hTyr(3S-OH,4S-OH,3'-OSO3H)][Gln(3R-OH)][Pro(3S-OH,4S-Me)]; lactam 1-C)
Ans: 0.467

====

Experiment: Micafungin concentrations in cerebrospinal fluid of infants with Candida meningitis (HPLC)
Assay type: in vivo
Conditions: human, CSF (ratio to plasma), iv, 7 mg/kg/day, Patient 1, dose 7 mg/kg/day iv; read-out: CSF/plasma ratio after 1 h
Method: Micafungin plasma and CSF concentrations were measured 1 h before and 1, 2, and 8 h after the end of the infusion. Sampling overlapped with those required for the clinical monitoring of these critical children. […] Blood picked up was centrifuged at 3000× g, and the plasma residue was stored at 4 °C until analyzed within 6 h or frozen at −20 °C and analyzed within 7 days, as previously reported. Drug concentrations were measured via high-performance liquid chromatography (HPLC). […]
*1 amine or outer side, *2 acyl side, *3 side chain or, on linkers, in order; H or OH if unused. Where a SMILES comes first, the peptide text is derived from it. Bridges are numbered along the chain shown (N, C = ends). [ ]: non-standard residue; d: D form. The star is where a group is joined. hTyr(3S-OH,4S-OH,3'-OSO3H) = N[C@H](C(=O)O)[C@H](O)[C@@H](O)c1ccc(O)c(OS(=O)(=O)O)c1; Orn(4R-OH,5R-OH) = O=C([C@H](C[C@@H](O)[C@@H](O)N[*:3])N[*:1])[*:2]; Pro(3S-OH,4S-Me) = C[C@H]1CN[C@H](C(=O)O)[C@H]1O; X1 = CCCCCOc1ccc(-c2cc(-c3ccc(C(=O)*)cc3)no2)cc1; Gln(3R-OH) = NC(=O)C[C@@H](O)[C@H](N)C(=O)O; Hyp = O=C(O)[C@@H]1C[C@@H](O)CN1
observation.type: Kp at 1 h
One number for each entry.

Q: Read off the recorded Kp at 1 h for CCCCCOc1ccc(-c2cc(-c3ccc(C(=O)N[C@H]4C[C@@H](O)[C@@H](O)NC(=O)[C@@H]5[C@@H](O)[C@@H](C)CN5C(=O)[C@H]([C@H](O)CC(N)=O)NC(=O)[C@H]([C@H](O)[C@@H](O)c5ccc(O)c(OS(=O)(=O)O)c5)NC(=O)[C@@H]5C[C@@H](O)CN5C(=O)[C@H]([C@@H](C)O)NC4=O)cc3)no2)cc1 [micafungin] (X1-[Orn(4R-OH,5R-OH)]T[Hyp][hTyr(3S-OH,4S-OH,3'-OSO3H)][Gln(3R-OH)][Pro(3S-OH,4S-Me)]; lactam 1-C)
Ans: 0.01
